System: HCT-15 colon
Experiment: NCI-60 one-dose screen, 48 h
Settings: 10 µM unless noted
This is part of a sample that, as a whole, favours compounds with a hit. Of some 83,000 tested, about 20% had one in any assay. The source made the active and inactive calls. Rule for the calls: active = growth percent below 10; inactive = the rest.
Thanks in advance; please answer with one of these: active, inactive

[[record]]
compound = "Cc1ccc(C2CC(c3ccc(NC(=S)Nc4ccccc4)cc3)=NN2c2ccc(S(N)(=O)=O)cc2)cc1 (stereo unspecified)"
assigned_class = "active"


Which result was noted for this compound in the test: CC[C@]12C=CCN3CC[C@]4(C(=C(C(=O)OC)C1)Nc1cc(OC)c([C@@H]5[C@H]6O[C@H]6[C@@]6(CC)CC(C(=O)OC)=C7Nc8cc(O)ccc8[C@@]78CCN5[C@@H]68)cc14)[C@@H]32
active

Which result was noted for this compound in the test: O=C1CCC(N2C(=O)c3cccc(NCCCCCC(=O)N4CCN(c5ccc6nc7c(nc6c5C(F)(F)F)C(=O)c5ncccc5C7=O)CC4)c3C2=O)C(=O)N1 (stereo unspecified)
active

Which result was noted for this compound in the test: O=C(CSc1nnc(-c2ccc(-c3nc4ccc(Cl)cc4[nH]3)cc2)o1)Nc1ccc(Br)cc1
inactive

Which result was noted for this compound in the test: COc1cc(/C=C/C(=O)c2cnn(-c3cc(=O)[nH]c4ccc(C)cc34)c2C)cc(OC)c1OC
active

Which result was noted for this compound in the test: O=C(CSc1nc2ccccc2c(=O)[nH]1)Nc1ccccc1C(=O)O
inactive
